All figures here come from the supplement of paper PMC7877785.

Experiment: self-splicing fitness, log relative to wild type (ln ratio); higher = more splicing; Tetrahymena group I intron in knt gene, E. coli kanamycin selection, DiMSum; sequences stand for … in CUCUCU…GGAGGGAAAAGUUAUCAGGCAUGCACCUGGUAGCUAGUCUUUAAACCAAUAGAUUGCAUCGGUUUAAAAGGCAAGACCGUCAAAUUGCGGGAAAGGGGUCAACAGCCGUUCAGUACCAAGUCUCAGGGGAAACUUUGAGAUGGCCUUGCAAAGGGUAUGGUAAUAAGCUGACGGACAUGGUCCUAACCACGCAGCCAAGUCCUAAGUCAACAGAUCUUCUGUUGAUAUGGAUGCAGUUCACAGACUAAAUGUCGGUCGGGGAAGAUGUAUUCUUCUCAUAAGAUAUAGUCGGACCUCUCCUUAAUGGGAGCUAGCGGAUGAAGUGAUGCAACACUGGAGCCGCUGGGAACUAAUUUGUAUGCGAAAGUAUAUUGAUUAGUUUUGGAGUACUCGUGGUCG;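 note: selection with 25 µg/mL kanamycin versus none on LB agar overnight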
Details: 30 °C
Readout Name: self-splicing fitness (ln)

• UACGAGCAAUAUUACGAACA = -2.11
• GGAAAGCAAUAUUACGUGAG = -1.22
• CUCUAGCAAUAUUACGAGGG = -3.28
• AAAGAGCAAUAUUACGGAUG = -4.57
• UUCAAGCAAUAUUACGAUAU = -2.7
• GUGGAGCAAUAUUACGUUCG = -1.45
• CCGCAGCAAUAUUACGGUCU = -4.37
• AUCUAGCAAUAUUACGAACC = -1.08
